assay: In vivo pharmacokinetics, plasma and brain concentrations; parameters: species or system C57BL/6 mice; settings: C57BL/6, mouse, intravenous; 3 mg/kg single dose, plasma, 12 h; read-out: plasma concentration after 12 h (FIG. 1)
Counter-ions that a name gives are not always drawn.
measurement type: concentration at 12 h
Respond with the figure and its unit, in that order.

**Q:** Which concentration at 12 h value belongs to CC(=O)N[C@H]1CN2/C(=N/Cc3ccccc3)SC[C@@H]2[C@@H](O)[C@@H]1O [Compound 4, Hydrochloride] ?
**A:** 0.78 ng/mL

====

molecular target: β-N-acetylglucosaminidase (from bovine kidney); assay: Inhibition assay against commercial β-N-acetylglucosaminidase (bovine kidney), p-nitrophenyl N-acetyl-β-D-glucosaminide substrate; conditions: pH 5.5, 37° C.; average of three determinations ± s.e.m.; NI = no inhibition detected at 200 μM; read-out: Bovine kidney Hex
Counter-ions that a name gives are not always drawn.
measurement type: pKi
Scale for pKi: -log10 of concentration given in mol/L; no unit attached.

Take a look at these entries with their results.
[[record]]
compound = "CC(=O)N[C@H]1CN2/C(=N/Cc3ccc(CN=[N+]=[N-])cc3)SC[C@@H]2[C@@H](O)[C@@H]1O [Compound 11, Hydrochloride]"
assay_system = "β-N-acetylglucosaminidase (from bovine kidney)"
reported = 6.14

[[record]]
compound = "CC(=O)N[C@H]1CN2/C(=N/CCc3ccccc3)SC[C@@H]2[C@@H](O)[C@@H]1O [Compound 12, Hydrochloride]"
assay_system = "β-N-acetylglucosaminidase (from bovine kidney)"
reported = 5.85

[[record]]
compound = "CC(=O)N[C@H]1CN2/C(=N/Cc3ccccc3)SC[C@@H]2[C@@H](O)[C@@H]1O [Compound 4, Hydrochloride]"
assay_system = "β-N-acetylglucosaminidase (from bovine kidney)"
reported = 6.34

[[record]]
compound = "CC(=O)N[C@H]1CN2/C(=N/Cc3cccc(CN=[N+]=[N-])c3)SC[C@@H]2[C@@H](O)[C@@H]1O [Compound 10, Hydrochloride]"
assay_system = "β-N-acetylglucosaminidase (from bovine kidney)"
reported = 6.08


**Q:** Which pKi value belongs to CC(=O)N[C@H]1CN2/C(=N/Cc3ccc(C(F)(F)F)cc3)SC[C@@H]2[C@@H](O)[C@@H]1O [Compound 8, hydrochloride] ?
**A:** 6.37

**Q:** Which pKi value belongs to COc1ccc(C/N=C2\SC[C@@H]3[C@@H](O)[C@H](O)[C@@H](NC(C)=O)CN23)cc1 [Compound 7, Hydrochloride] ?
**A:** 5.92

**Q:** Which pKi value belongs to CC(=O)N[C@H]1CN2/C(=N/c3ccccc3)SC[C@@H]2[C@@H](O)[C@@H]1O [Compound 3, Hydrochloride] ?
**A:** 6.15

====

target: β-N-acetylglucosaminidase (from bovine kidney); assay: Inhibition assay against commercial β-N-acetylglucosaminidase (bovine kidney), p-nitrophenyl N-acetyl-β-D-glucosaminide substrate; settings: pH 5.5, 37° C.; average of three determinations ± s.e.m.; NI = no inhibition detected at 200 μM; read-out: Bovine kidney Hex
Where a name gives a salt, the structure may show the parent alone.
Lab note - cut at 900 nM for Ki: T if strictly below, F if not.

Examples with answers:
[[record]]
compound = "CC(=O)N[C@H]1CN2/C(=N/Cc3ccc(F)cc3)SC[C@@H]2[C@@H](O)[C@@H]1O [Compound 6, Hydrochloride]"
class_assignment = "F"

[[record]]
compound = "CCCCN=C1SCC2C(O)C(O)C(NC(C)=O)CN12 (stereo not shown) [Compound 1, Hydrochloride]"
class_assignment = "T"

[[record]]
compound = "CCCNC(=S)N[C@H]1CN2/C(=N/Cc3ccccc3)SC[C@@H]2[C@@H](O)[C@@H]1O"
class_assignment = "F"

[[record]]
compound = "CCCCCCCCN=C1SCC2C(O)C(O)C(NC(C)=O)CN12 (stereo not shown) [Compound 2, Hydrochloride]"
class_assignment = "T"


Field: next compound
**Q:** Input CC(C)C(=O)N[C@H]1CN2/C(=N/Cc3ccccc3)SC[C@@H]2[C@@H](O)[C@@H]1O [Compound 16, Hydrochloride] ; condition: Ki strictly below 900 nM. Does it hold?
**A:** F

====

Biological target: hOGA (Homo sapiens)
Sequence (O60502 1-916): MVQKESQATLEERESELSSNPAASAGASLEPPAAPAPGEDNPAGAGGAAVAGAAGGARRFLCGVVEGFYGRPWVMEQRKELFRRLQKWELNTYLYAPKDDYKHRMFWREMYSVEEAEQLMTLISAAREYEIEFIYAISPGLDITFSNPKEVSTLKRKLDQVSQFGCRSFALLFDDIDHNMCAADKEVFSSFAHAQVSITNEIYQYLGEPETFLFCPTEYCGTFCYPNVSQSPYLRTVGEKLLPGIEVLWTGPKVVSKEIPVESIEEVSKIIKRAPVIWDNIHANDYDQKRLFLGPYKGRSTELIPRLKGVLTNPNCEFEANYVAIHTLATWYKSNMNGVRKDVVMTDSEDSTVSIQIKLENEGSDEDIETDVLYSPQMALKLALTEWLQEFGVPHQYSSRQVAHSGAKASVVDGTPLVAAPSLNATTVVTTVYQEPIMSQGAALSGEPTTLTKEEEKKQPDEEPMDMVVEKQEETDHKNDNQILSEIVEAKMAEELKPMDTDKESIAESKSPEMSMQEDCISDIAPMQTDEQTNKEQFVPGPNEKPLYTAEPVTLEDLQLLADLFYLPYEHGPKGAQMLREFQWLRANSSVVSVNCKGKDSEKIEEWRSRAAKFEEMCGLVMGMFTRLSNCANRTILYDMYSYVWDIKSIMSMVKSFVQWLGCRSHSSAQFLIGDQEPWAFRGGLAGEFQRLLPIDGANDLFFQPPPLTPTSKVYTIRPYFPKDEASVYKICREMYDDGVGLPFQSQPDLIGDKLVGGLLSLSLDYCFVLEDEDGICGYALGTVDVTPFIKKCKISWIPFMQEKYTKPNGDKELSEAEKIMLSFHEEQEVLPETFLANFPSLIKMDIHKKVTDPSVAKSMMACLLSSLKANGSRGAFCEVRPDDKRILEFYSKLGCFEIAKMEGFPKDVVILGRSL
Where a name gives a salt, the structure may show the parent alone.
Reported Ki is given for each of the following molecules.
Report only the number, with the unit nM understood.

Take a look at these entries with their results.
[[record]]
molecule = "CC(C)C(=O)N[C@H]1CN2/C(=N/Cc3ccccc3)SC[C@@H]2[C@@H](O)[C@@H]1O [Compound 16, Hydrochloride]"
value_unit = "nM"
reported = 888

[[record]]
molecule = "CC(=O)N[C@H]1CN2/C(=N/CCc3ccccc3)SC[C@@H]2[C@@H](O)[C@@H]1O [Compound 12, Hydrochloride]"
value_unit = "nM"
reported = 0.918

[[record]]
molecule = "CC(=O)N[C@H]1CN2/C(=N/c3ccccc3)SC[C@@H]2[C@@H](O)[C@@H]1O [Compound 3, Hydrochloride]"
value_unit = "nM"
reported = 399


Now consider the entry below.
**Q:** Request: Ki, test system hOGA (Homo sapiens), entry CC(=O)N[C@H]1CN2/C(=N/Cc3ccccc3CN=[N+]=[N-])SC[C@@H]2[C@@H](O)[C@@H]1O [Compound 9, Hydrochloride]
**A:** 0.278

====

Biological target: hOGA (Homo sapiens, UniProt O60502)
Sequence (O60502 1-916): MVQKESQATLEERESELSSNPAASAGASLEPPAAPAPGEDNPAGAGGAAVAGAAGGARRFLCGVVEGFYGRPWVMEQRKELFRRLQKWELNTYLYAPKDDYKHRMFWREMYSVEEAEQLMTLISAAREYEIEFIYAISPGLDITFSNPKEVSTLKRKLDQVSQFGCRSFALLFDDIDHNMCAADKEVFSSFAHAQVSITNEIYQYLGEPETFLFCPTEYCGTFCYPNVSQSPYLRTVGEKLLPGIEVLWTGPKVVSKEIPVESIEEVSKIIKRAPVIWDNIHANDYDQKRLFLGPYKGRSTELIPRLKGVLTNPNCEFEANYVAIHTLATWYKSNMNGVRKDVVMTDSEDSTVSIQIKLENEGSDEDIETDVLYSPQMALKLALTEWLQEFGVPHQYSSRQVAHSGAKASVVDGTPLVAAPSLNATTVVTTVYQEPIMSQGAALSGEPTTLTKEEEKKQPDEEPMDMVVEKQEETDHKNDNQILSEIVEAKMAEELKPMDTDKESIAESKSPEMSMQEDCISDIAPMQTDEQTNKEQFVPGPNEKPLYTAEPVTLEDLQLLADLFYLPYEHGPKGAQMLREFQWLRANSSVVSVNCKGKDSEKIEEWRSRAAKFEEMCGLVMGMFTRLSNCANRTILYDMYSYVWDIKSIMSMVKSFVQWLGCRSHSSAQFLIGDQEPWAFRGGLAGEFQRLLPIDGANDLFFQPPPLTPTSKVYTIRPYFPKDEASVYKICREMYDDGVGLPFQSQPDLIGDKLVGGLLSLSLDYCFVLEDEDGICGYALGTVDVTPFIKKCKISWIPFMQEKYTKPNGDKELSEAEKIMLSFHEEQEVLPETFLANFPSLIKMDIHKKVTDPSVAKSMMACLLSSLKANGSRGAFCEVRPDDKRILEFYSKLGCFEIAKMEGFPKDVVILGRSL
Counter-ions that a name gives are not always drawn.
Reported pKi is given for each of the following compounds.
Scale for pKi: -log10 of concentration given in mol/L; no unit attached.

[[record]]
compound = "CCCNC(=S)N[C@H]1CN2/C(=N/Cc3ccccc3)SC[C@@H]2[C@@H](O)[C@@H]1O [Compound 19]"
reported = 6.12


**Q:** Which pKi value belongs to CCC(=O)N[C@H]1CN2/C(=N/Cc3ccc4[nH]ccc4c3)SC[C@@H]2[C@@H](O)[C@@H]1O [Compound 15, hydrochloride] ?
**A:** 9.18

**Q:** Which pKi value belongs to CC(=O)N[C@H]1CN2/C(=N/Cc3ccc(C(F)(F)F)cc3)SC[C@@H]2[C@@H](O)[C@@H]1O [Compound 8, hydrochloride] ?
**A:** 7.32
